Assay: Diameter and PDI from DLS measurements of mRNA nanoparticles with lipid amines
Type: physicochemical
Conditions: Luciferase mRNA nanoparticle modified with lipid amine
Experimental: Lipids are dissolved in ethanol at a concentration of 24 mg/mL and molar ratios of 49.0:11.2:39.3:0.5 (IL1:DSPC:cholesterol:PEG-DMG-2K) and mixed with the acidification buffer (45 mM acetate buffer at pH 4). The lipid solution and acidification buffer are mixed using a multi-inlet vortex mixer at a 3:7 volumetric ratio of lipid:buffer for mixer 1 and mixer 2 and a 1:3 volumetric ratio of lipid:buffer (25% ethanol) for mixer 3. […]
Where a name gives a salt, the structure may show the parent alone.
Observable: PDI
Just the number, please, no unit attached.

# Compound, Test value
records = [
    ("CC(C)CCC[C@@H](C)[C@H]1CC[C@H]2[C@@H]3CC=C4C[C@@H](SSCCC(=O)N(CCCCCCCC(C)N)CCC(C)N)CC[C@]4(C)[C@H]3CC[C@]12C (some centres unmarked) [SA172, dihydrochloride]", 0.10),
]

Now take the following compound into account.
Please indicate PDI recorded for CC[C@H](CC[C@@H](C)[C@H]1CC[C@H]2[C@@H]3CC=C4C[C@@H](OC(=O)CCC(=O)N(CCCCCCCC(C)N)CCC(C)N)CC[C@]4(C)[C@H]3CC[C@]12C)C(C)C (some centres unmarked) [SA163, dihydrochloride] 0.17

====

A collection of compounds and their measured Average Relative Light Units ± Standard Deviation
test system: HeLa cells; assay: Luciferase Protein Expression Assay in HeLa Cells; type: cell-based, Human; settings: LNPs encapsulating Luciferase mRNA, 25 ng per well, N=4 wells; 5 h serum-free then 24 h; ONE-Glo
Structures can show the parent of a compound that is named as a salt.
The reply should be a number in Relative Light Units, with the unit left off.

# Compound, Value units, Test value
measured = [
    ("CC(C)CCC[C@@H](C)[C@H]1CC[C@H]2[C@@H]3CC=C4C[C@@H](OC(=O)N(CCCCNCC(C)(C)CN)CC(C)(C)CN)CC[C@]4(C)[C@H]3CC[C@]12C [SA77, trihydrochloride]", "Relative Light Units", 39191.9),
]

Please indicate Average Relative Light Units ± Standard Deviation recorded for CC(C)CCC[C@@H](C)[C@H]1CC[C@H]2[C@@H]3CC=C4C[C@@H](OC(=O)CN(CCCN)CCCCCCCCN)CC[C@]4(C)[C@H]3CC[C@]12C [SA71, trihydrochloride] 32758.9

====

test: Encapsulation of mRNA nanoparticles with lipid amines using Ribogreen assay; assay type: physicochemical; details: CFTR mRNA nanoparticle with lipid amine
Counter-ions that a name gives are not always drawn.
A collection of compounds and their measured % Encapsulation (Ribogreen)
The reply should be a number in %, with the unit left off.

Please indicate % Encapsulation (Ribogreen) recorded for CC(C)CCC[C@@H](C)[C@H]1CC[C@H]2[C@@H]3CC=C4C[C@@H](SSCCC(=O)N(CCCCCCCC(C)N)CCC(C)N)CC[C@]4(C)[C@H]3CC[C@]12C (some centres unmarked) [SA172, dihydrochloride] 98.3

Please indicate % Encapsulation (Ribogreen) recorded for CC(C)CCC[C@@H](C)[C@H]1CC[C@H]2[C@@H]3CC=C4C[C@@H](OC(=O)[C@H](CCCCN)NCCCCCCN)CC[C@]4(C)[C@H]3CC[C@]12C.Cl.Cl.Cl 98.6

Please indicate % Encapsulation (Ribogreen) recorded for CC[C@H](CC[C@@H](C)[C@H]1CC[C@H]2[C@@H]3CC=C4C[C@@H](SSCCC(=O)N(CCCCNCCC(N)(CC)CC)CCC(N)(CC)CC)CC[C@]4(C)[C@H]3CC[C@]12C)C(C)C [SA181, trihydrochloride] 98.7

Please indicate % Encapsulation (Ribogreen) recorded for CC(C)CCC[C@@H](C)[C@H]1CC[C@H]2[C@@H]3CC=C4C[C@@H](OC(=O)N(CCCCNCCC5(N)CC5)CCC5(N)CC5)CC[C@]4(C)[C@H]3CC[C@]12C [SA124, trihydrochloride] 98.3

Please indicate % Encapsulation (Ribogreen) recorded for CC[C@H](CC[C@@H](C)[C@H]1CC[C@H]2[C@@H]3CC=C4C[C@@H](OC(=O)CCCC(=O)N(CCCCCCCC(C)N)CCC(C)N)CC[C@]4(C)[C@H]3CC[C@]12C)C(C)C (some centres unmarked) [SA154, dihydrochloride] 99.1

Please indicate % Encapsulation (Ribogreen) recorded for CC(C)CCC[C@@H](C)[C@H]1CC[C@H]2[C@@H]3CC=C4C[C@@H](OC(=O)CCCC(=O)N(CCCN)CCCCCCCCN)CC[C@]4(C)[C@H]3CC[C@]12C.Cl.Cl 98.7

====

experiment: Diameter and PDI from DLS measurements of mRNA nanoparticles with lipid amines; assay type: physicochemical; settings: Luciferase mRNA nanoparticle modified with lipid amine
Structures can show the parent of a compound that is named as a salt.
A collection of compounds and their measured Diameter (nm)
The reply should be a number in nm, with the unit left off.

# Compound, Diameter (nm)
records = [
    ("CC[C@H](CC[C@@H](C)[C@H]1CC[C@H]2[C@@H]3CC=C4C[C@@H](OC(=O)CCCC(=O)N(CCC(C)N)CCC(C)N)CC[C@]4(C)[C@H]3CC[C@]12C)C(C)C (some centres unmarked) [SA156, dihydrochloride]", 74),
    ("CC(C)CCC[C@@H](C)[C@H]1CC[C@H]2[C@@H]3CC=C4C[C@@H](OC(=O)N(CCCCNCCC5(N)CC5)CCC5(N)CC5)CC[C@]4(C)[C@H]3CC[C@]12C [SA124, trihydrochloride]", 74),
    ("CC(C)CCC[C@@H](C)[C@H]1CC[C@H]2[C@@H]3CC=C4C[C@@H](SSCCC(=O)N(CCCCCCCC(C)(C)N)CCC(C)(C)N)CC[C@]4(C)[C@H]3CC[C@]12C.Cl.Cl [SA139]", 72),
    ("CC(C)CCC[C@@H](C)[C@H]1CC[C@H]2[C@@H]3CC=C4C[C@@H](OC(=O)N(CCCN)CCCCCCN)CC[C@]4(C)[C@H]3CC[C@]12C [SA83, dihydrochloride]", 75),
]

Now take the following compound into account.
Please indicate Diameter (nm) recorded for CC(C)CCC[C@@H](C)[C@H]1CC[C@H]2[C@@H]3CC=C4C[C@@H](OC(=O)N(CCCCNCCC(C)N)CCC(C)N)CC[C@]4(C)[C@H]3CC[C@]12C (some centres unmarked) [SA76, trihydrochloride] 75

====

tested on: HeLa cells; test: Luciferase Protein Expression Assay in HeLa Cells; type: cell-based, Human; conditions: LNPs encapsulating Luciferase mRNA, 25 ng per well, N=4 wells; 5 h serum-free then 24 h; ONE-Glo
Counter-ions that a name gives are not always drawn.
Observable: Average Relative Light Units ± Standard Deviation (Relative Light Units)
The reply should be a number in Relative Light Units, with the unit left off.

Example cases with answers are listed next.
# Compound, Value units, Test value
rows = [
    ("CC(C)CCC[C@@H](C)[C@H]1CC[C@H]2[C@@H]3CC=C4C[C@@H](OC(=O)N(CCC(C)(C)N)CCC(C)(C)N)CC[C@]4(C)[C@H]3CC[C@]12C [SA158, dihydrochloride]", "Relative Light Units", 33097.8),
    ("CC[C@H](CC[C@@H](C)[C@H]1CC[C@H]2[C@@H]3CC=C4C[C@@H](SSCCC(=O)N(CCCCNCCC(N)(CC)CC)CCC(N)(CC)CC)CC[C@]4(C)[C@H]3CC[C@]12C)C(C)C [SA181, trihydrochloride]", "Relative Light Units", 12107.3),
]

Please indicate Average Relative Light Units ± Standard Deviation recorded for CC(C)CCC[C@@H](C)[C@H]1CC[C@H]2[C@@H]3CC=C4C[C@@H](OC(=O)N(CCCCNCC(O)CN)CC(O)CN)CC[C@]4(C)[C@H]3CC[C@]12C (stereo partly shown) [SA88, trihydrochloride] 17105.3

Please indicate Average Relative Light Units ± Standard Deviation recorded for CC[C@H](CC[C@@H](C)[C@H]1CC[C@H]2[C@@H]3CC=C4C[C@@H](OC(=O)CCC(=O)N(CCC(C)(C)N)CCC(C)(C)N)CC[C@]4(C)[C@H]3CC[C@]12C)C(C)C [SA170, dihydrochloride] 23687.3

====

A collection of compounds and their measured PDI
assay: Diameter and PDI from DLS measurements of mRNA nanoparticles with lipid amines; type: physicochemical; settings: Luciferase mRNA nanoparticle modified with lipid amine
Where a name gives a salt, the structure may show the parent alone.
Just the number, please, no unit attached.

Example cases with answers are listed next.
# Compound, PDI
measured = [
    ("CC(C)CCC[C@@H](C)[C@H]1CC[C@H]2[C@@H]3CC=C4C[C@@H](OC(=O)CC(=O)N(CCCN)CCCCNCCCN)CC[C@]4(C)[C@H]3CC[C@]12C.Cl.Cl.Cl [SA59]", 0.15),
    ("CC(C)CCC[C@@H](C)[C@H]1CC[C@H]2[C@@H]3CC=C4C[C@@H](SSCCC(=O)N(CCCCCCCC(C)(C)N)CCC(C)(C)N)CC[C@]4(C)[C@H]3CC[C@]12C.Cl.Cl [SA139]", 0.12),
    ("CC[C@H](CC[C@@H](C)[C@H]1CC[C@H]2[C@@H]3CC=C4C[C@@H](OC(=O)CCC(=O)N(CCCCCCCC(C)(C)N)CCC(C)(C)N)CC[C@]4(C)[C@H]3CC[C@]12C)C(C)C [SA165, dihydrochloride]", 0.13),
]

Now take the following compound into account.
Please indicate PDI recorded for CC(C)CCC[C@@H](C)[C@H]1CC[C@H]2[C@@H]3CC=C4C[C@@H](OC(=O)N(CCCCNCC(O)CN)CC(O)CN)CC[C@]4(C)[C@H]3CC[C@]12C (stereo partly shown) [SA88, trihydrochloride] 0.13
